system: Pin1 (Homo sapiens)
Construct: endogenous in cells; host or cells: 293T cells
Sequence (Q13526 whole entry): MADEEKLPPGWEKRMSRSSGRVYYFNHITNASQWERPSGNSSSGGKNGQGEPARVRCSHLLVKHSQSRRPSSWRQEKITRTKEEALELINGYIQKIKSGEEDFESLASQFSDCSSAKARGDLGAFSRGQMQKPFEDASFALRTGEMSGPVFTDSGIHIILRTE
test description: Cell-based Pin1 inhibition assay with AMPK phosphorylation level as index (293T cells)
Parameters: key: +++: a higher level of AMPK phosphorylation is promoted, as compared with C1; ++: a similar level of AMPK phosphorylation is promoted, as compared with C1; +: a lower level of AMPK phosphorylation is promoted, as compared with C1; −: no or almost no promotion is found in AMPK phosphorylation
conditions used: compound at 100 μM for 30 minutes, then 10 mM 2-DG for one hour, pAMPK blot compared with C1
endpoint: Pin1 inhibition activity

Illustrative cases are given below, each with its answer.
1. O=C(N[C@H](Cc1ccc2ccccc2c1)C(=O)OCc1ccccc1)C1c2ccccc2-c2ccccc21 = −
2. O=C(O)[C@@H](Cc1ccc2ccccc2c1)NC(=O)N1c2ccccc2C=Cc2ccccc21 = +
3. O=C(O)[C@@H](Cc1ccc2ccccc2c1)NC(=O)N1c2ccccc2Oc2ccccc21 = ++
4. O=C(CC1c2ccccc2-c2ccccc21)N[C@H](Cc1ccc2ccccc2c1)C(=O)O = +++
5. O=C(O)[C@@H](Cc1ccc2ccccc2c1)NC(=O)N(c1ccccc1)c1ccccc1 = ++

The reported value for COC(=O)c1ccc2cc(C(=O)N[C@H](Cc3ccc4ccccc4c3)C(=O)O)ccc2c1 in terms of Pin1 inhibition activity is +

* * *

system: Pin1 (Homo sapiens)
Construct: endogenous in cells; host or cells: 293T cells
test description: Cell-based Pin1 inhibition assay with AMPK phosphorylation level as index (293T cells)
Design: key: +++: a higher level of AMPK phosphorylation is promoted, as compared with C1; ++: a similar level of AMPK phosphorylation is promoted, as compared with C1; +: a lower level of AMPK phosphorylation is promoted, as compared with C1; −: no or almost no promotion is found in AMPK phosphorylation
conditions used: compound at 100 μM for 30 minutes, then 10 mM 2-DG for one hour, pAMPK blot compared with C1
endpoint: Pin1 inhibition activity

In the examples that follow, each entry is paired with its recorded Pin1 inhibition activity.
1. O=C(Cn1c2ccccc2c2ccccc21)N[C@H](Cc1ccc2ccccc2c1)C(=O)O [Compound H-536] = +
2. O=C(Nc1ccc(C(=O)c2ccccc2)cc1)N[C@H](Cc1ccc2ccccc2c1)C(=O)O [Compound H-341] = ++
3. O=C(O)[C@@H](Cc1ccc2ccccc2c1)NC(=O)n1c2ccccc2c2ccccc21 [Compound H-163] = ++
4. O=C(O)[C@@H](Cc1ccc2ccccc2c1)NC(=O)N1c2ccccc2CCc2ccccc21 [Compound H-178] = +++
5. O=C(N[C@H](Cc1ccc2ccccc2c1)C(=O)O)OCc1ccccc1 [Compound H-65, reference compound] = −
6. O=C(Cc1ccc2ccccc2c1)N[C@H](Cc1ccc2ccccc2c1)C(=O)O [Compound H-158] = ++

Sample O=C(N[C@H](Cc1ccc2ccccc2c1)C(=O)O)C1c2ccccc2-c2ccccc21 [Compound H-109] ; Pin1 inhibition activity observed: +++

Looking up COC(=O)[C@@H](Cc1ccc2ccccc2c1)NC(=O)Cn1c2ccccc2c2ccccc21 [Compound H-521] , I found its Pin1 inhibition activity recorded as +

Reported Pin1 inhibition activity for O=C(O)[C@@H](Cc1ccc2ccccc2c1)NC(=O)C1(O)c2ccccc2-c2ccccc21 [Compound H-101] was ++

Note to self: Pin1 inhibition activity recorded for O=C(Nc1ccccc1Oc1ccccc1)N[C@H](Cc1ccc2ccccc2c1)C(=O)O [Compound H-334] was +++

The reported measurements were obtained from patent US11504379B2.
